# Protocol Summary: NCI Yeast Anticancer Drug Screen. Data for the cln2 rad14 strain (AID 165)
# Protocol Conditions: S. cerevisiae cln2 rad14 strain, at 50.0 µM, hits give high values
About 79,000 compounds went through this panel and 15% of them were active in at least one assay; those are over-represented in the sample as a whole.
Assign class by growth inhibition: not lower than -10% means YES; lower than -10% means NO.

| Compound | Cat |
| --- | --- |
| CC(=O)OC1COC(n2c(O)c(N=NC(N)=S)c3cc(Br)ccc32)C(OC(C)=O)C1OC(C)=O (stereo not given) | NO |
| COc1ccc(-n2c(=O)c(N=Nc3ccccc3)c(O)n(-c3ccccc3OC)c2=S)cc1 | NO |

Inquiry: Reported growth inhibition at or above -10%? CC1(C)C(O)C(C)(C)C1O (stereo not given)
Reply text: YES

Inquiry: Consider next the compound Cc1c(C)c(C(Cl)(Cl)Cl)c(C)c(C)c1Br in the same way.
Reply text: YES

Inquiry: Also need Cc1ncnc(N)c1N , thanks.
Reply text: YES

Every entry's value here was drawn from PubChem BioAssay (NCI).
